Tested Target: Bcl-2 (Homo sapiens, UniProt P10415)
Sequence (P10415 1-204): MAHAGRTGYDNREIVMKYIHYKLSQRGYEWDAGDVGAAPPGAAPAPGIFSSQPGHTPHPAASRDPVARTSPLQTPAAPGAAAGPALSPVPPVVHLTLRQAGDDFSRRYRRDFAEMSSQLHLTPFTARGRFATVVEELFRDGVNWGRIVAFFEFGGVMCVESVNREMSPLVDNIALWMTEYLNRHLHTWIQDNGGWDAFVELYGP
Counter-ions that a name gives are not always drawn.
Quantity Kind: pIC50
Remember the convention: pIC50 equals -log10 of concentration in molar.

Known pIC50 results, listed for orientation:
Compound	Tested Target	pIC50
O=C(NS(=O)(=O)c1ccc(N[C@H](CCN(CCO)CCO)CSc2ccccc2)c(S(=O)(=O)C(F)(F)F)c1)c1ccc(N2CCC([C@@H](O)c3ccccc3-c3ccc(Cl)cc3)CC2)cc1 [Example 5, formic acid salt]	Bcl-2 (Homo sapiens, UniProt P10415)	9.10
CN(CCOP(=O)(O)O)CC[C@H](CSc1ccccc1)Nc1ccc(S(=O)(=O)NC(=O)c2ccc(N3CCC([C@@H](O)c4ccccc4-c4ccc(Cl)cc4)CC3)cc2)cc1S(=O)(=O)C(F)(F)F [Example 9, phosphate, hydrochloride salt]	Bcl-2 (Homo sapiens, UniProt P10415)	9.05

Check Bcl-2 (Homo sapiens, UniProt P10415) data and give pIC50 for O=C(NS(=O)(=O)c1ccc(N[C@H](CCN2CCN(CCOP(=O)(O)O)CC2)CSc2ccccc2)c(S(=O)(=O)C(F)(F)F)c1)c1ccc(N2CCC([C@@H](O)c3ccccc3-c3ccc(Cl)cc3)CC2)cc1 [Example 10] .
9.15
